Biological target: Extracellular calcium-sensing receptor (Rattus norvegicus)
Assay: Agonist activity at rat brain CaSR expressed in CHO cells assessed as inositol phosphate production at 10 uM in presence of 2 mM extracellular Ca2+ by IP-one assay
Assay type: functional, cell-based
readout: Activity (%)

Use these answered entries as a reference point.
In [3]: df
Out[3]:
                               smiles_input                           measured_target  recorded_result
0  COc1ccc2cc(CN[C@H](C)c3cccc4ccccc34)[nH]c2c1  Extracellular calcium-sensing receptor (Rattus norvegicus)               76
1  COc1cc(OC)c2cc(CN[C@H](C)c3cccc4ccccc34)[nH]c2c1  Extracellular calcium-sensing receptor (Rattus norvegicus)               94
2  COc1cccc2[nH]c(CN[C@H](C)c3cccc4ccccc34)cc12  Extracellular calcium-sensing receptor (Rattus norvegicus)               95

1 = COc1cccc([C@@H](C)NCc2cc3ccccc3[nH]2)c1
2 = Cc1ccc([C@@H](C)NCc2cc3ccccc3[nH]2)cc1
3 = C[C@@H](NCc1cc2ccccc2[nH]1)c1cccc2ccccc12
Lookup: Could you please order the items by Activity, going from the lowest number to the highest? Ranked list of labels, please, in the requested order.
Found: 2, 1, 3

###

Target: G-protein coupled receptor family C group 6 member A (Mus musculus) (UniProt Q8K4Z6)
Sequence (Q8K4Z6 whole entry): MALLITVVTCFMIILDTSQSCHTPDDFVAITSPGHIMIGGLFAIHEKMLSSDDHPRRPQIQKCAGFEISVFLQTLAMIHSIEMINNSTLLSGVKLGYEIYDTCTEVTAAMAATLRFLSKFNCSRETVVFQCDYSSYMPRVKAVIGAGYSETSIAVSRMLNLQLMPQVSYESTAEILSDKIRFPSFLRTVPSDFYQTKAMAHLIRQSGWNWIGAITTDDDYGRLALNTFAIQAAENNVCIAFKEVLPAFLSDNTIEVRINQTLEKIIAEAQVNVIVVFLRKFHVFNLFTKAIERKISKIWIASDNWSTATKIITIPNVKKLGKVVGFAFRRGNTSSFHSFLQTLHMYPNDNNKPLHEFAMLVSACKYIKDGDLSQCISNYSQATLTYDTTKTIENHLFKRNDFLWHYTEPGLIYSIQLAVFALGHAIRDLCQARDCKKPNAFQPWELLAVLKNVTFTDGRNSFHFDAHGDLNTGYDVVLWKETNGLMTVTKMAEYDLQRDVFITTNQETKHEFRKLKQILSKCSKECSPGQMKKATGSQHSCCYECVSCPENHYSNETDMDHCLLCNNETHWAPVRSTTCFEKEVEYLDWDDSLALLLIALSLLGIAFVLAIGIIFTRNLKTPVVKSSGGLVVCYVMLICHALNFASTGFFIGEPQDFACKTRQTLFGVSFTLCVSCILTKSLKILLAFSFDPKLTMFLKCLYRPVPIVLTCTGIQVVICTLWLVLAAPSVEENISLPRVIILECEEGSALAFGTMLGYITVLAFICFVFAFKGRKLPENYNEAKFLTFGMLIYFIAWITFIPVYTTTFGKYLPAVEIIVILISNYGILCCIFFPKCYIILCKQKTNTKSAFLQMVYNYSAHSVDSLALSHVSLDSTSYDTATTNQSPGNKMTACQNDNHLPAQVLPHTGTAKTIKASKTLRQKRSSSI
Assay: Inhibition of L-Ornithine-stimulated wild type mouse GPRC6A expressed in HEK293 cells coexpressing GalphaqG66D assessed as increase in [3H] inositol phosphate production at 10 uM incubated for 30 mins in presence of 2 mM extracellular Ca2+
Format: functional, cell-based
Active and inactive are the calls of the source. The rule behind the calls is not given here.
readout: inhibition

>>> print(df.to_string())
                                   compound  recorded_result
0  C[C@@H](NCc1cc2ccccc2[nH]1)c1cccc2ccccc12 [CALINDOL]              35%
1  CC(NCc1cc2ccccc2[nH]1)c1ccc(F)c2ccccc12 (racemic)         inactive
2  C[C@@H](NCc1cc2c(-c3ccccc3)cccc2[nH]1)c1cccc2ccccc12         inactive
3  C[C@@H](NCc1cc2cccc([N+](=O)[O-])c2[nH]1)c1cccc2ccccc12         inactive

###

Biological target: Extracellular calcium-sensing receptor (Rattus norvegicus)
Experiment: Agonist activity at rat brain CaSR expressed in CHO cells assessed as inositol phosphate production at 10 uM in presence of 3 mM extracellular Ca2+ by IP-one assay
Format: functional, cell-based
readout: Activity (%)

Use these answered entries as a reference point.
>>> df
                                   compound  recorded_result
0  C[C@@H](NCc1cc2cccc(O)c2[nH]1)c1cccc2ccccc12               83
1  CC(NCc1cc2ccccc2[nH]1)c1ccccc1O (racemic)                1
2  C[C@@H](NC1CCCc2c1[nH]c1ccccc21)c1cccc2ccccc12 (mixture of isomers)               67
3  C[C@@H](NCc1[nH]c2ccccc2c1-c1ccccc1)c1cccc2ccccc12               55
4  C[C@@H](NCc1cc2c(-c3ccccc3)cccc2[nH]1)c1cccc2ccccc12              102

P = C[C@@H](NCc1cc2ccccc2[nH]1)c1cccc2ccccc12
Q = CC(NCc1cc2ccccc2[nH]1)c1ccc(-c2ccccc2)cc1 (racemic)
Lookup: When P and Q are compared, which has the higher number for Activity? State the label of the item chosen.
Found: P

###

Target: Extracellular calcium-sensing receptor (Rattus norvegicus) (UniProt P48442)
Assay: Agonist activity at rat brain CaSR expressed in CHO cells assessed as inositol phosphate production at 10 uM in presence of 2 mM extracellular Ca2+ by IP-one assay
Format: functional, cell-based
readout: Activity (%)

                               smiles_input                           measured_target  recorded_result
0   COc1ccc([C@@H](C)NCc2cc3ccccc3[nH]2)cc1  Extracellular calcium-sensing receptor (Rattus norvegicus) (UniProt P48442)               27
1  Cc1ccc2[nH]c(CN[C@H](C)c3cccc4ccccc34)cc2c1  Extracellular calcium-sensing receptor (Rattus norvegicus) (UniProt P48442)               69

I = C[C@@H](NCc1cc2cc(F)ccc2[nH]1)c1cccc2ccccc12
II = C[C@@H](NCc1cc2ccccc2[nH]1)c1ccccc1
Lookup: When I and II are compared, which has the higher number for Activity? State the label of the item chosen.
Found: I

###

Target: Extracellular calcium-sensing receptor (Rattus norvegicus)
Experiment: Agonist activity at rat brain CaSR expressed in CHO cells assessed as inositol phosphate production at 3 uM in presence of 2 mM extracellular Ca2+ by IP-one assay
Assay type: functional, cell-based
readout: Activity (%)

                               smiles_input  recorded_result
0  C[C@@H](NCc1cc2ccccc2[nH]1)c1cccc2ccccc12               73
1  C[C@@H](NCc1cc2cc(F)ccc2[nH]1)c1cccc2ccccc12               30
2  COc1cc(OC)c2cc(CN[C@H](C)c3cccc4ccccc34)[nH]c2c1               53

a = COc1cccc2[nH]c(CN[C@H](C)c3cccc4ccccc34)cc12
b = COc1ccc2cc(CN[C@H](C)c3cccc4ccccc34)[nH]c2c1
c = Cc1ccc2[nH]c(CN[C@H](C)c3cccc4ccccc34)cc2c1
Lookup: Hello, I need these entries ordered by Activity, highest reading first. Thanks! Ranked list of labels, please, in the requested order.
Found: a, b, c

###

Target: Extracellular calcium-sensing receptor (Rattus norvegicus, UniProt P48442)
Sequence (P48442 whole entry): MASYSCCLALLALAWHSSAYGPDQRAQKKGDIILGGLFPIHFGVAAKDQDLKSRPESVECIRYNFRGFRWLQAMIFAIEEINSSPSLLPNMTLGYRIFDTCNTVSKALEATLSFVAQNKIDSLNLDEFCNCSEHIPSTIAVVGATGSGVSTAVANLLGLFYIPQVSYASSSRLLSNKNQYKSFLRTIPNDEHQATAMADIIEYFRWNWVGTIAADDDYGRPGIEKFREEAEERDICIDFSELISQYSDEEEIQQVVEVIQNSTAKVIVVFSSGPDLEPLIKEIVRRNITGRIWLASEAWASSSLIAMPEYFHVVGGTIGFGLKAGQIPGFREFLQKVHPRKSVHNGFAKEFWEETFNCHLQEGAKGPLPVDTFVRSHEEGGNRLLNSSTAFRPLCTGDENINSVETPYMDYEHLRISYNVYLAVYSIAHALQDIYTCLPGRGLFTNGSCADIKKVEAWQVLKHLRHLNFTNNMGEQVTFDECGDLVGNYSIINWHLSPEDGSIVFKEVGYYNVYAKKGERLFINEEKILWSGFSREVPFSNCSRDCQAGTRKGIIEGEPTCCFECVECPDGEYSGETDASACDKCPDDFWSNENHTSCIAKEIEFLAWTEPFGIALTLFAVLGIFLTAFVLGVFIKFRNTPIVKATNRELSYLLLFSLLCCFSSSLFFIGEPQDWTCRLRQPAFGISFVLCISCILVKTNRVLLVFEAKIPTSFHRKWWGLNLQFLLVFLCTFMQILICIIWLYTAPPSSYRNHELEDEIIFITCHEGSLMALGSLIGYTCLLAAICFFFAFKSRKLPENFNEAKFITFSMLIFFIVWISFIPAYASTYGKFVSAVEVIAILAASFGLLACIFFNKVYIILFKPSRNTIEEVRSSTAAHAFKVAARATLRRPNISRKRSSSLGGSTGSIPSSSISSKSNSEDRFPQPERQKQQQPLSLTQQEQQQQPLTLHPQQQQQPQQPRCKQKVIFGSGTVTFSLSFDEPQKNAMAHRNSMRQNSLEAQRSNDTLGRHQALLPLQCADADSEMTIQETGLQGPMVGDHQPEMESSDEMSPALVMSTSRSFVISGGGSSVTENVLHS
Test: Agonist activity at rat brain CaSR expressed in CHO cells assessed as inositol phosphate production in presence of 3 mM extracellular Ca2+ by IP-one assay
pEC50: −log10 of the molar value.
readout: pEC50

Use these answered entries as a reference point.
>>> print(df.to_string())
                                   compound  recorded_result
0  CC(NCc1cc2ccccc2[nH]1)c1ccc(F)c2ccccc12 (racemic)             6.88
1  C[C@@H](NCc1cc2cc(O)ccc2[nH]1)c1cccc2ccccc12             6.95
2  C[C@@H](NCc1cc2ccccc2[nH]1)c1cccc2ccccc12             6.88
3  C[C@@H](NCc1cc2c(-c3ccccc3)cccc2[nH]1)c1cccc2ccccc12             6.87

P = C[C@@H](NCc1cc2c(O)cccc2[nH]1)c1cccc2ccccc12
Q = C[C@@H](NCc1cc2cccc([N+](=O)[O-])c2[nH]1)c1cccc2ccccc12
Lookup: # query: argmin of pEC50 over P and Q State the label of the item chosen.
Found: P
